# Tested on: chickweed (common chickweed, Stellaria media)
# EXPERIMENT_NOTES: Test D controlled growth environment herbicide test, pre- and postemergence
# Format: in vivo
# TEST_CONTEXT: postemergence, 62 g ai/ha; scale 0 to 100, 0 no effect, 100 complete control
PROPERTY: Plant response rating, Chickweed

1) CC(=O)Oc1c(Br)nn(C)c(=O)c1-c1c(C)ccc2ccccc12 :: 100
2) C#CCOC(=O)Oc1c(C)nn(C)c(=O)c1-c1c(C)sc2ccc(C)cc12 :: 90
3) CCC(=O)Oc1c(C)nn(C)c(=O)c1-c1c(C)sc2ccc(C)cc12 :: 100
4) Cc1cc(C)c2sc(C)c(-c3c(OC(=O)OC(C)C)c(C)nn(C)c3=O)c2c1 :: 100
5) CCOC(=O)Oc1c(C)nn(C)c(=O)c1-c1c(C)sc2ccc(C)cc12 :: 90
6) Cc1cc(C)c2sc(C)c(-c3c(OC(=O)OCCCl)c(C)nn(C)c3=O)c2c1 :: 100
7) CC(=O)Oc1c(C)nn(C)c(=O)c1-c1c(C)sc2ccc(C)cc12 :: 98

* * *

# System: wheat, spring (spring wheat, Triticum aestivum)
# EXPERIMENT_NOTES: Test D controlled growth environment herbicide test, pre- and postemergence
# Format: in vivo
# TEST_CONTEXT: Preemergence, 31 g ai/ha
Measured Plant response rating (scale of 0 to 100), Wheat, Spring, listed per entry.
PROPERTY: Plant response rating (scale of 0 to 100), Wheat, Spring

1) C#CCOC(=O)Oc1c(C)nn(C)c(=O)c1-c1c(C)sc2ccc(C)cc12 [Compound 87] :: 0
2) CC(=O)Oc1c(C)nn(C)c(=O)c1-c1c(C)sc2ccc(C)cc12 [Compound 25] :: 0
3) Cc1nn(C)c(=O)c(-c2c(C)sc3ccc(Cl)cc23)c1O [Compound 104] :: 0
4) CC(=O)Oc1c(C)nn(C)c(=O)c1-c1ccc(F)c2ccccc12 [Compound 90] :: 20
5) Cc1cc(C)c2sc(C)c(-c3c(OC(=O)OCCCl)c(C)nn(C)c3=O)c2c1 [Compound 85] :: 0
6) CC(=O)Oc1c(C)nn(C)c(=O)c1-c1c(C)cc(C)c2ccccc12 [Compound 153] :: 25
7) COc1nn(C)c(=O)c(-c2c(C)ccc3ccccc23)c1OC(=O)OC(C)C [Compound 36] :: 0
8) COC(=O)Oc1c(C)nn(C)c(=O)c1-c1c(C)sc2c(C)cc(C)cc12 [Compound 81] :: 0

* * *

# Tested on: crabgrass, large (large crabgrass, Digitaria sanguinalis)
# EXPERIMENT_NOTES: Test C greenhouse herbicide test, pre- and postemergence
# Type: in vivo
# TEST_CONTEXT: Postemergence, 62 g ai/ha; 0 to 100 scale (0 no effect, 100 complete control)
# Excerpt: […]
PROPERTY: Crabgrass, Large plant response rating

1. COC(=O)Oc1cnn(C)c(=O)c1-c1c(C)ccc2ccccc12 :: 10
2. COc1nn(C)c(=O)c(-c2c(C)ccc3ccccc23)c1OC(C)=O :: 20
3. Cc1ccc2ccccc2c1-c1c(OC(=O)N2CCOCC2)c(Br)nn(C)c1=O :: 5
4. Cc1nn(C)c(=O)c(-c2cccc3ccc(C#N)cc23)c1O :: 5

* * *

# System: deadnettle (henbit deadnettle, Lamium amplexicaule)
# EXPERIMENT_NOTES: Test D controlled growth environment herbicide test, pre- and postemergence
# Format: in vivo
# TEST_CONTEXT: Preemergence, 31 g ai/ha
PROPERTY: Plant response rating (scale of 0 to 100), Deadnettle

1. CC(=O)Oc1c(C)nn(C)c(=O)c1-c1c(C)sc2c(C)cc(C)cc12 :: 0
2. COc1nn(C)c(=O)c(-c2c(C)ccc3ccccc23)c1OC(=O)OC(C)C :: 0
3. Cc1ccc2sc(C)c(-c3c(O)c(C)nn(C)c3=O)c2c1 :: 0
4. COc1nn(C)c(=O)c(-c2c(C)ccc3ccccc23)c1O :: 0
5. CCOC(=O)Oc1c(C)nn(C)c(=O)c1-c1c(C)sc2ccc(C)cc12 :: 10
6. Cc1ccc2ccc(C)c(-c3c(O)c(C)nn(C)c3=O)c2c1 :: 35
7. CC(=O)Oc1c(C)nn(C)c(=O)c1-c1ccc(F)c2ccccc12 :: 15
